Test system: CP238
Assay: qHTS profiling for inhibitors of Plasmodium falciparum proliferation (AID 504749); further: nearly all actives have a fitted effect of over 60% in size
Conditions: P. falciparum in erythrocytes, SYBR Green DNA, 72 h; series mostly up to 28.7 µM
Inconclusive results are not listed. Calls of active or inactive are those of the source. The call rests on the fitted dose curve; in most records, active means well fitted inhibition curve with a large enough effect; inconclusive means small, poorly fitted or top-dose-only effect; inactive means flat fitted curve, though single readings scatter.
Select the matching outcome among yes (1) (active), no (0) (inactive)

Please review the following examples before continuing.
INSERT INTO results (compound, assayed_system, group) VALUES
  ('COc1cc2c(cc1OC)C1CC(=O)C(CC(C)C)CN1CC2 (stereo not drawn)', 'CP238', 'no (0)'),
  ('O=C(CS(=O)Cc1ccco1)NCC=CCOc1cc(CN2CCCCC2)ccn1 (stereo not drawn)', 'CP238', 'no (0)'),
  ('Nc1ccn([C@@H]2O[C@H](CO)[C@@H](O)C2O)c(=O)n1 (stereo partly drawn)', 'CP238', 'no (0)'),
  ('O=C(NC(Cc1cc(=O)[nH]c2ccccc12)C(=O)O)c1ccc(Cl)cc1 (stereo not drawn)', 'CP238', 'no (0)'),
  ('CC(C)[C@H](N)C(=O)OCCOCn1cnc2c(=O)[nH]c(N)nc21', 'CP238', 'no (0)'),
  ('CCN(CCO)CCCC(C)Nc1ccnc2cc(Cl)ccc12 (stereo not drawn)', 'CP238', 'no (0)'),
  ('O=C(O)c1cccnc1Nc1cccc(C(F)(F)F)c1', 'CP238', 'no (0)'),
  ('COc1ccc(C2(C#N)CCC(C(=O)O)CC2)cc1OC1CCCC1 (stereo not drawn)', 'CP238', 'no (0)'),
  ('Cc1nc2n(c(=O)c1CCN1CCC(c3noc4cc(F)ccc34)CC1)CCCC2', 'CP238', 'no (0)'),
  ('Cc1cccc(C)c1OCC(=O)N[C@@H](Cc1ccccc1)[C@@H](O)C[C@H](Cc1ccccc1)NC(=O)[C@H](C(C)C)N1CCCNC1=O', 'CP238', 'yes (1)');

In: What is the recorded call for this compound in the test? "O=C(NCCO[N+](=O)[O-])c1cccnc1"
Out: no (0)

In: Here is the next compound: "O=C(O)CCNC(=O)c1ccc(N=Nc2ccc(O)c(C(=O)O)c2)cc1"
Out: no (0)

In: Here is the next compound: "NNc1nncc2ccccc12"
Out: no (0)

In: Here is the next compound: Nc1cccc2c1CN(C1CCC(=O)NC1=O)C2=O (stereo not drawn)
Out: no (0)

----------
Assay: qHTS of pediatric cancer cell lines to identify multiple opportunities for drug repurposing: Primary screen for OHS-50 cells (AID 1347103); further: nearly all actives have a fitted effect of over 40% in size
Details: OHS-50 osteosarcoma viability, CellTiter-Glo luminescence, 48 h; series mostly up to 57.3 µM
Inconclusive results are not listed. The source made the active and inactive calls. Calls come from the whole dose curve; as a rule, active = well fitted cell-killing curve with a large enough effect; inconclusive = small, poorly fitted or top-dose-only effect; inactive = no such curve, though single readings can be large or run the other way.
Select the matching outcome among TRUE = active, FALSE = inactive

Please review the following examples before continuing.
INSERT INTO measurements (compound, group) VALUES
  ('O=C(NCCO[N+](=O)[O-])c1cccnc1', 'FALSE'),
  ('Nc1cc(C(Cl)=C(Cl)Cl)c(S(N)(=O)=O)cc1S(N)(=O)=O', 'FALSE'),
  ('CNC[C@H](O)c1ccc(O)c(O)c1', 'FALSE');

In: What is the recorded call for this compound in the test? "CCCc1cc(=O)[nH]c(=S)[nH]1"
Out: FALSE

In: Here is the next compound: "Nc1nc(N)c(N=O)c(OCC2CCCCC2)n1"
Out: TRUE

In: Here is the next compound: Nc1cccc2c1CN(C1CCC(=O)NC1=O)C2=O (configuration not stated)
Out: FALSE

In: Here is the next compound: "NC(=O)Cc1cccc(C(=O)c2ccccc2)c1N"
Out: FALSE

----------
Test: Confirmatory screen NINDS Rhodamine qHTS for Zika virus inhibitors (AID 1347161); further: nearly all actives have a fitted effect of over 60% in size; further: potency means the concentration at half of the fitted maximal effect
Conditions: purified enzyme assay, Rhodamine110 substrate fluorescence, 15 min; series mostly up to 114 µM
Inconclusive results are not listed. Activity calls are given as the source filed them. The call rests on the fitted dose curve; in most records, active means well fitted inhibition curve with a large enough effect; inconclusive means small, poorly fitted or top-dose-only effect; inactive means no such curve, though single readings can be large or run the other way.
Readout Kind: Potency

Worked examples follow.
INSERT INTO assay_data (molecule, value_reported) VALUES
  ('Cc1nc(-c2ccc(OCC(C)C)c(C#N)c2)sc1C(=O)O', '31.2 µM (active)'),
  ('Oc1ccc(-c2nc(-c3ccc(F)cc3)c(-c3ccncc3)[nH]2)cc1', 'inactive'),
  ('COc1cc2c(cc1OC)C1CC(=O)C(CC(C)C)CN1CC2 (stereo not given)', 'inactive'),
  ('CCc1nc(N)nc(N)c1-c1ccc(Cl)cc1', 'inactive');

Attention now shifts to the item below.
In: # get_value(readout='Potency', item= "CC(C)c1ccc2c(c1)c(SC(C)(C)C)c(CC(C)(C)C(=O)O)n2Cc1ccc(Cl)cc1" )
Out: 1.56 µM (active)

----------
Assay: qHTS Screen of the MIPE 4.0 Collection Against Ewings Sarcoma (TC71) (AID 1259253); further: nearly all actives have a fitted effect of over 40% in size
Conditions: TC71 Ewing sarcoma viability, CellTiter-Glo, 48 h; series mostly up to 45.8 µM
Records with an inconclusive call do not appear. Active and inactive are the calls of the source. Calls come from the whole dose curve; as a rule, active = well fitted inhibition curve with a large enough effect; inconclusive = small, poorly fitted or top-dose-only effect; inactive = no such curve, though single readings can be large or run the other way.
Select the matching outcome among active, inactive

Please review the following examples before continuing.
INSERT INTO measurements (compound, group) VALUES
  ('NS(=O)(=O)c1cc(C(=O)O)c(NCc2ccco2)cc1Cl', 'inactive'),
  ('O=C(O)c1cccnc1Nc1cccc(C(F)(F)F)c1', 'inactive');

In: What is the recorded call for this compound in the test? "COc1c(O)cc2c(c1O)[C@@H]1O[C@H](CO)[C@@H](O)[C@H](O)[C@H]1OC2=O"
Out: inactive

In: Here is the next compound: "COc1ccc2cc([C@H](C)C(=O)O)ccc2c1"
Out: inactive

In: Here is the next compound: "C[C@H](Cc1ccc(O)c(O)c1)[C@@H](C)Cc1ccc(O)c(O)c1"
Out: active

----------
Test: qHTS Screen of the MIPE 4.0 Collection Against Ewings Sarcoma (TC71) (AID 1259253); further: nearly all actives have a fitted effect of over 40% in size
Details: TC71 Ewing sarcoma viability, CellTiter-Glo, 48 h; series mostly up to 45.8 µM
Results filed as inconclusive are left out. Activity calls are given as the source filed them. Calls follow the shape of the dose curve; as a rule, active = well fitted inhibition curve with a large enough effect; inconclusive = small, poorly fitted or top-dose-only effect; inactive = no such curve, though single readings can be large or run the other way.
Select the matching outcome among Y for active, N for inactive

Please review the following examples before continuing.
INSERT INTO results (molecule, group) VALUES
  ('CC(C)(S)[C@@H](N)C(=O)O', 'N'),
  ('CCN(CC)C(=S)SSC(=S)N(CC)CC', 'Y'),
  ('O=c1ccc2ccc(O)c(O)c2o1', 'Y'),
  ('c1ccc2[nH]c(-c3cscn3)nc2c1', 'N');

Below: the item to evaluate.
In: What is the recorded call for this molecule in the test? CN(C)CCCC1(c2ccc(F)cc2)OCc2cc(C#N)ccc21 (stereo unspecified)
Out: Y

----------
Test system: CP256
Assay: qHTS profiling for inhibitors of Plasmodium falciparum proliferation (AID 504749); further: nearly all actives have a fitted effect of over 60% in size
Settings: P. falciparum in erythrocytes, SYBR Green DNA, 72 h; series mostly up to 28.7 µM
Inconclusive results are not listed. Active and inactive are the calls of the source. The call rests on the fitted dose curve; in most records, active means well fitted inhibition curve with a large enough effect; inconclusive means small, poorly fitted or top-dose-only effect; inactive means flat fitted curve, though single readings scatter.
Select the matching outcome among TRUE = active, FALSE = inactive

Please review the following examples before continuing.
INSERT INTO results (compound, group) VALUES
  ('Cc1cc(=O)c2c(O)c3c(O)cc(=O)c4c3c3c(cc(O)c1c23)C(C)(C)C=4O', 'TRUE'),
  ('Cc1c(C(=O)NN2CCCCC2)nn(-c2ccc(Cl)cc2Cl)c1-c1ccc(Cl)cc1', 'TRUE'),
  ('Nc1ccn([C@@H]2O[C@H](CO)[C@@H](O)C2O)c(=O)n1 (stereo partly drawn)', 'FALSE'),
  ('Cc1nc2n(c(=O)c1CCN1CCC(c3noc4cc(F)ccc34)CC1)CCCC2', 'FALSE'),
  ('O=C(NCCO[N+](=O)[O-])c1cccnc1', 'FALSE'),
  ('O=C1CCc2ccc(OCCCCN3CCN(c4cccc(Cl)c4Cl)CC3)cc2N1', 'FALSE'),
  ('c1ccc2[nH]c(-c3cscn3)nc2c1', 'FALSE'),
  ('CC1=C(C)C(=O)C(C(CCCCCC(=O)O)c2ccccc2)=C(C)C1=O (stereo not drawn)', 'FALSE');

In: What is the recorded call for this compound in the test? "CCCOc1ccc2nc(NC(=O)OC)[nH]c2c1"
Out: FALSE

In: Here is the next compound: "CNC[C@@H](O)[C@@H](O)[C@H](O)[C@H](O)CO"
Out: FALSE

In: Here is the next compound: "O=C1c2ccccc2-c2n[nH]c3cccc1c23"
Out: FALSE

In: Here is the next compound: "O=c1oc2cc(O)ccc2s1"
Out: FALSE

In: Here is the next compound: COc1cc2c(cc1OC)C1CC(=O)C(CC(C)C)CN1CC2 (stereo not drawn)
Out: FALSE

In: Here is the next compound: "N[C@@H](Cc1cc(I)c(Oc2cc(I)c(O)c(I)c2)c(I)c1)C(=O)O"
Out: FALSE

In: Here is the next compound: COCCCOc1ccnc(CS(=O)c2nc3ccccc3[nH]2)c1C (stereo not drawn)
Out: FALSE

In: Here is the next compound: O=C(OC1C[C@H]2CC[C@@H](C1)[N+]21CCCC1)C(O)(c1ccccc1)c1ccccc1 (stereo partly drawn)
Out: TRUE

In: Here is the next compound: "CCCc1cc(=O)[nH]c(=S)[nH]1"
Out: FALSE

In: Here is the next compound: "C=C(c1ccc(C(=O)O)cc1)c1cc2c(cc1C)C(C)(C)CCC2(C)C"
Out: FALSE

In: Here is the next compound: Clc1ccc(C(Cn2ccnc2)OCc2ccsc2Cl)c(Cl)c1 (stereo not drawn)
Out: TRUE

In: Here is the next compound: "CN(C)C(=O)COC(=O)Cc1ccc(OC(=O)c2ccc(N=C(N)N)cc2)cc1"
Out: FALSE
